Numbers sourced from patent US20170210778A1.

Target: murine NOD1 (Mus musculus)
Construct: expressed in transfected cells; host or cells: HEK293
Sequence (Q8BHB0 1-953): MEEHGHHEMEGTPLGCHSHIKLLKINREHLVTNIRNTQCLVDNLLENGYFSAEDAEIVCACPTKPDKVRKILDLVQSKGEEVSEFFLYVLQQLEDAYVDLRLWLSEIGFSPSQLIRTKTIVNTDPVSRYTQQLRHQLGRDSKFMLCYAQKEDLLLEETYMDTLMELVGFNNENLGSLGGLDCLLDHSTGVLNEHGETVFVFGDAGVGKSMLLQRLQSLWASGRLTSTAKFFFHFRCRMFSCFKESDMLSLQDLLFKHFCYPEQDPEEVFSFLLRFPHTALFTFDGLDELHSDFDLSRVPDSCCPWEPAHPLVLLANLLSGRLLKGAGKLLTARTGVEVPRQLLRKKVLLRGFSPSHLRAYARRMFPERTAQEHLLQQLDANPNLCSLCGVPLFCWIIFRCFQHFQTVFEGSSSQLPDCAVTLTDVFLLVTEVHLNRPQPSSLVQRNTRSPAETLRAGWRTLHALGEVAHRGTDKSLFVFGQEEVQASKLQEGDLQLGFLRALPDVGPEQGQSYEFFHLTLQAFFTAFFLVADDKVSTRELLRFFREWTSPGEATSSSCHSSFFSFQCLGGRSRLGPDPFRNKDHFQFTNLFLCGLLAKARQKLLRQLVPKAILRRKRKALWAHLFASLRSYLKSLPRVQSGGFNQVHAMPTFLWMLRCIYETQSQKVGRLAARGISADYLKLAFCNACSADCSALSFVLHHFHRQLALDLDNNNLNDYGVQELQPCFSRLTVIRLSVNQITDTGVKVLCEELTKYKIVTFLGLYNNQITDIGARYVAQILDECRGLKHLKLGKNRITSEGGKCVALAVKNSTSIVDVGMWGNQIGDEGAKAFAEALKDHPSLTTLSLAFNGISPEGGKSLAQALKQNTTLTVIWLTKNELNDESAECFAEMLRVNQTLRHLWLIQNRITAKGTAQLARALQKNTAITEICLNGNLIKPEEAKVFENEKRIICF
Assay: NOD1 functional agonist assay, 293mNOD1-SEAP reporter cells
Assay type: cell-based
Details: 293mNOD1 cells, OD above 3*O.D of negative control
Protocol: HEK293 cells were stably transfected with plasmid for the overexpression of the NOD1 genes and a reporter plasmid expressing a secreted embryonic alkaline phosphatase (SEAP) gene under the control of a promoter inducible by the transcription factors NF-κB and AP-1. […] The biological activity of the compounds of the invention tested using 293hNOD1 and 293mNOD1 cells. SEAP expression was measured using the commercially available SEAP detection kit (HEK-Blue™ Detection, InvivoGen). […]
*1 amine or outer side, *2 acyl side, *3 side chain or, on linkers, in order; H or OH if unused. Where a SMILES comes first, the peptide text is derived from it. [ ]: non-standard residue; d: D form. The star is where a group is joined. d(γGlu) = O=C(O)[C@@H](CCC(=O)[*:2])N[*:1]; Ala(3-yl) = N[C@@H](C*)C(=O)O; dLac = C[C@@H](O)C(=O)O
Each entry below carries its reported mNod1: concentration where a significant mean optical density (OD) can be observed.
State the answer as a number, implicitly in µg/mL.

C[C@@H](NC(=O)[C@@H](CSC[C@H](N)C(=O)O)NC(=O)CC[C@@H](N)C(=O)O)C(=O)O	10
C[C@H](N)C(=O)N[C@H](CCC(=O)N[C@H](CSC[C@H](N)C(=O)O)C(=O)N[C@H](C)C(=O)O)C(=O)O	1
CCCCCCCCCCCCCC(=O)N[C@H](CCC(=O)N[C@H](CSC[C@H](N)C(=O)O)C(=O)N[C@H](C)C(=O)O)C(=O)O	0.001
C[C@H](N)C(=O)N[C@H](CCC(=O)N[C@@H](COC[C@@H](N)C(=O)O)C(=O)O)C(=O)O	100

Req: Identify mNod1: concentration where a significant mean optical density (OD) can be observed associated with the molecule CCCCCCCCCCCCCC(=O)N[C@@H](C)C(=O)N[C@H](CCC(=O)N[C@H](CSC[C@H](N)C(=O)O)C(=O)N[C@H](C)C(=O)O)C(=O)O
Resp: 0.001

Req: Identify mNod1: concentration where a significant mean optical density (OD) can be observed associated with the molecule CC(=O)N[C@H]1[C@@H](OCc2ccccc2)O[C@H](CO)[C@@H](O)[C@@H]1O[C@H](C)C(=O)N[C@@H](C)C(=O)N[C@H](CCC(=O)N[C@H](CSC[C@H](N)C(=O)O)C(=O)NCC(=O)O)C(=O)O
Resp: 0.1

Req: Identify mNod1: concentration where a significant mean optical density (OD) can be observed associated with the molecule C[C@H](NC(=O)[C@@H](C)O)C(=O)N[C@H](CCC(=O)N[C@H](CSC[C@H](N)C(=O)O)C(=O)NCC(=O)O)C(=O)O [Example 30] (H-[dLac]A[d(γGlu)][dC](Ala(3-yl))G-OH)
Resp: 10
